The measured values listed here are drawn from the nanobody polyreactivity screen of Harvey et al. (2022).

ASSAY_EXPLANATION: yeast display, Sf9 membrane polyspecificity reagent, FACS + sequencing; frameworks hold sequencing errors
MEASURED_METRIC: polyreactivity (PSR sort gate)

SEQ_TEXT: QVQLVESGGGLVQAGGSLRLSCAASGITFYFNAMGWYRQAPGKERELVAVITSGGSTNYADSVKGRFTISRDNAKNTVYLQMNSLKPEDTAVYYCANDKSYSSWSAQYDYWGQGTHVTVSS
VALUE_REPORTED: low polyreactivity
//
SEQ_TEXT: QVQLVESGGGLVQAGGSLRLSCAASGYTFEDNAMGWYRQAPGKERELVAAIDWSGDSTYYADSVKGRFTISRDNAKNTVYLQMNSLKPEDTAVYYCSADYTTWTDMDYWGQGTQVTVSS
VALUE_REPORTED: low polyreactivity
//
SEQ_TEXT: QVQLVESWGGIVQAGGILRLSFAAYGRIFASNAMGWYRKAPGKERELVAGISRNGGSTFYEDSVKGRYTISRDTAKNTVYLQMISLKPDDTAVYYCARYYTHSGGYRDRIYYYWGQGTQVTVSS
VALUE_REPORTED: low polyreactivity

---

ASSAY_EXPLANATION: yeast display, Sf9 membrane polyspecificity reagent, FACS + sequencing; frameworks hold sequencing errors
MEASURED_METRIC: polyreactivity (PSR sort gate)

SEQ_TEXT: QVQLVESGGGLVQAGGSLRLSCAASGRTFYRYVMGWYRQATGKERELDADISRRGGRTYYADSVKGRFTISRDNAKNTVYLQMNSLKPEDTAVYYCAAESKYATSSPRRDYWGQGTQVTVSS
MEASURED_METRIC: polyreactivity (PSR sort gate)
VALUE_REPORTED: high polyreactivity

SEQ_TEXT: QVQLVESGGGLVQAAGSLLLSCAPSGFIFYYNAMGWYRQAPGKETELVATIRGSGGSTYYADSVKGRFTISRDYAKNTVYLQMNSLKPEDTAVYYCAASVQYRRLKKFYYWGQGTQVTVSS
MEASURED_METRIC: polyreactivity (PSR sort gate)
VALUE_REPORTED: high polyreactivity

---

ASSAY_EXPLANATION: yeast display, Sf9 membrane polyspecificity reagent, FACS + sequencing; frameworks hold sequencing errors

SEQ_TEXT: QVQLVESGGGLVQAGGSLRLSCAASGRIFPSYAMGWYRQAPGKERELVATISSGGRTYYADSVKGRFTISRDNAKNTVYLQMNSLKPEDTEVYYCNADRTQDRNPYTYATFDYWGQGTQVTVSS
polyreactivity (PSR sort gate): low polyreactivity
//
SEQ_TEXT: QVQLVESGGGLVQAGGSLRLSCAASGRTSTQNAMGWYRQAPGKERELVAAITTGGGSTYYADSVKGRFTISRDNAKNTVYLQMNSLKPEDTAVYYCAARTPQRSEWTKYGYWGQGTQVTVSS
polyreactivity (PSR sort gate): low polyreactivity

---

ASSAY_EXPLANATION: yeast display, Sf9 membrane polyspecificity reagent, FACS + sequencing; frameworks hold sequencing errors

SEQ_TEXT: QVQLVESVGCLVQAGGSLRLSCAASGFIFGSYTMGWYRPAPGKESELVAAISSSGGNTYYADSVKGRFTISRDHAKNTVYLQMNSLKPEDTAVYYCAVDYIYDDAYNYWGQGTQVTVSS
polyreactivity (PSR sort gate): high polyreactivity

SEQ_TEXT: QVQLVESGGGLVQAGGSLRLSCAASGSIFKYNAMGWYRPAPGKERELVAAISWSGGSTRYADSLKGRFTISRDNATNTGYLQMNSLKPEDTAVYYCAAKHGRNYAANALYGYWGQGTQVTVSS
polyreactivity (PSR sort gate): high polyreactivity

SEQ_TEXT: QVQLVESGGGLVQAGGSLRLSCAASGRIFVSYAMGWYRQAPGKERELVAAINWNGDRTYYADSVKGRFTISRDNATNTVYLQMNSLKPEDTAVYYCNTDSILLPYDYWGQGTQVTVSS
polyreactivity (PSR sort gate): low polyreactivity

SEQ_TEXT: QVQLVESGGGLVQAGGSLRLSCAASGFIFSYYVMGWYRQAPGKERELVAAINESGGRTYYADSVKGRFTISRDNAKNTVYLQMNSLKPEDTAVYYCATIPGYVYYWQYKYDYWGQGTQVTVSS
polyreactivity (PSR sort gate): low polyreactivity

SEQ_TEXT: QVQLVESGGGLVQAGGSLRLSCAAYGSIFSENAMGWYRQAPGKEWELVADITDGGGSTYYADSVKGRFTISRDNAKNPVYLQMNSLKPDDTAVYYCNAQIFFFAPWYYEYDYWGQCTQVTVSS
polyreactivity (PSR sort gate): low polyreactivity

SEQ_TEXT: QVQLLETGRGLVQAGGSLRLSCASSGSIFFLYAMGWYRQAPGKERELVAAINWRTGRTYYADSVKWRFTISRDNAKNTVYFQMNSLKPEDTEVYYCAARSVPSPERGFYYWGQGTQVTVSS
polyreactivity (PSR sort gate): high polyreactivity

SEQ_TEXT: QVQLVESGGGLVQAGGSLRLSCAASGSIFAYNAMGWYRQAPGKERELVAAISVGGGRTYYADSVKGRFTISRDNAKNTVYLQMNSLKPEDTAVYYCAASSTAKRYYWGQGTQVTVSS
polyreactivity (PSR sort gate): high polyreactivity

SEQ_TEXT: QVQLVESGGGLVQAGGSLRLSCAASGITFWYNAMGWYRQAPGKERELVAAITRTGSTNYADSVKGRFTISRDNAKNTVYLQMNSLKPEDTAVYYCAAYLGWPWGYYSWGQGTQVTVSS
polyreactivity (PSR sort gate): high polyreactivity

SEQ_TEXT: QVQLVESGGGLVQAGGSLRLSCAASGRIFGPYVMGWYIQAPGKERELVAAISTSGTSTYYADSVKGRFTISRDNANNTVYLQMNSLKPEDTAVFYFAKRSGARHRLMDYWGQGTQVTVSS
polyreactivity (PSR sort gate): low polyreactivity

SEQ_TEXT: QVQLVESGGGLVQAGGSLRLSCAATGRTFGSNAMGWYRQAPGKERELVAAISLRGGRTYYADSVKGRFTISRDTAKNTVYLQMNSLKPEDTAVYYCNAVHYLYGARSRLTYDYWGQGTQVTVSS
polyreactivity (PSR sort gate): high polyreactivity

SEQ_TEXT: QVQLVESGGGLVQAGGSLRLSCAASGFDGYAMGWYRQAPGKERELVAAISWSGSRTYYADSVKGRFTISRDNAKNTVYLQMNSLKPEDTAVYYCAADDVGRGSTPYDYWGQGTQVTVSW
polyreactivity (PSR sort gate): high polyreactivity
